Experiment notes: yeast display, Sf9 membrane polyspecificity reagent, FACS + sequencing; frameworks hold sequencing errors
Recorded endpoint: polyreactivity (PSR sort gate)

Sequence text	polyreactivity (PSR sort gate)
QVQLVDSGGGLVQAGGSLSLSCAASGYTFDTNAMGWYRQAPGKERELVAAIDFSGGTTYADSVKGRFTISRDNAKNTVYLQMNSLKPEDTAVYYCSADHSGGSRYDYWGQGTQVTVSS	low polyreactivity
QVQLVESGGGLVQAGGSLRLSCDASGNTFRGYAMGWYRQAPGKERELVAAITSGGRTYYADSVKGRFTISRDNAKNTVYLQMNSLKPEDTAVYYCNAVLGRYVTYNYWGQGTQVTVSS	high polyreactivity
QVQLVESGGGLVQAGGSLRLSCAASGRTFTPNAMGWYRQAPGKEREFVAAITYSGGSTRYADSVKGRFTISRDNAKNTVYLQMNSLKPEDTAVYYCAKGYFYYVYTEDDGYWGQGTQVTVSS	low polyreactivity
QVQLVESGGGLVQAGGSLRLSCAASGSTFETNGMGWYRQAPGKERELVAAITSGGSTYYADSVKGRFTISRDNAKNTVYLQMNSLKPEDTAVYYCAAVDGGWAYDPYDYWGQGTQVTVSS	low polyreactivity
QGQLVESGGGLVQAGGSLRLSCAASGSIVWYNAMGWYRQAPGKERELVAAINWSGGSTFYADSVKGRFTISRDNAKNTVYLQMYSLKPEDTAVYYCAADDWYTGYDYWGQGTQVTVSS	high polyreactivity
QVQLVESGGGLVQAGGSLRLSCAASGSTFYGKAMGWYRQAPGKRELLAAITWSGGSTYYADSVKGRFTISRDNAKNTVYLQMNSLKPEDTAVYYCAARNPKSGYNYWGQGTQVTVSS	low polyreactivity

Data request: Which polyreactivity (PSR sort gate) value belongs to `QVQLVESGGGLVQAGGSLRLSSAASGFTFYRNPMGWYRQAPGKERELVAAITRSGTSTYYADSVKGRFTISRDNAKNSVYLQKNSLKPEDTAVYYCNTVGYRGRSNSRFYYWGQGTQVTVSS` ?
Data returned: high polyreactivity

Data request: Reported polyreactivity (PSR sort gate), sequence `QVQLVESGGGLVQAGGSLRLSCAASGRTLYKYAMGLYRQAPGKERELFATISSGGRTNYADSVKGRFTISRDNSKNTVYLQMNSLKPEDTAVYYCAAQNRPRYYSGDYWGQGSQVTVSS` : ____
Data returned: low polyreactivity

Data request: For `QVQLVESGGGLVQAGGSLRLSCAASGSIFDVNAMGWSRQPPGKERELVAVISSSDSTDYADSVKGRFTISRDNAKNTVYLQMNSLKPEDTAVYYCAADEYQDRPDDYWGQGTQVTVSS` , what is its reported polyreactivity (PSR sort gate)?
Data returned: low polyreactivity

# credit: the nanobody polyreactivity screen of Harvey et al. (2022)
